Assay Info: Solubility study of didymin in different media (HPLC)
Type: physicochemical
Condition: organic solvent or mixture, thermodynamic from solid; methanol, room temperature, 72 h stirring; read-out: solubility in methanol

| Compound | solubility at 72 h |
| --- | --- |
| COc1ccc(C2CC(=O)c3c(O)cc(OC4OC(COC5OC(C)C(O)C(O)C5O)C(O)C(O)C4O)cc3O2)cc1 (stereo not drawn) [didymin, isosakuranetin-7-beta-rutinoside] | 11.2 mg/mL |

---

Assay Info: Pharmacokinetic study after oral administration
Format: in vivo
Condition: male, rat, plasma, SD rats, 25 mg/kg

| Molecule | Cmax |
| --- | --- |
| COc1ccc(C2CC(=O)c3c(O)cc(OC4OC(COC5OC(C)C(O)C(O)C5O)C(O)C(O)C4O)cc3O2)cc1 (stereo not drawn) [didymin, isosakuranetin-7-beta-rutinoside] | 2770 ng/mL |
